assay: NCI Yeast Anticancer Drug Screen. Data for the cln2 rad14 strain (AID 165);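 note: 0% = growth equal to vehicle treated cultures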; settings: S. cerevisiae cln2 rad14 strain, at 50.0 µM, active compounds read high
Compounds without any hit were thinned out: in the full panel of roughly 79,000, 15% have a hit.
Each entry below carries its recorded growth inhibition.
Could you give me the number in %? Just the number is fine.

Examples with answers:
Compound	growth inhibition, %
C=C1C(=O)OC2CC(C)C3(O)CCC(=O)C3(C)CC12 (stereo unspecified)	4.45
COC(=O)c1cc(C#N)[nH]c1-c1ccsc1	6.4
CCn1c2c(c3ccccc3c1=O)C(=O)c1ccccc1-2	12.8

Exercise: So what's the measured growth inhibition for this one? "O=C(Cc1nc2ccc(C(=O)c3ccccc3)cc2[nH]c1=O)C(=O)Nc1ccccc1[N+](=O)[O-]"
Solution: 9.35

Exercise: Value lookup for growth inhibition; key = "COC(=O)c1ccc(NC(=O)O/N=C(\Cl)C(C)C)cc1"
Solution: 8.85

Exercise: # growth inhibition lookup, item OCc1ccccc1OC1OC(CO)C(O)C(O)C1O (stereo unspecified)
Solution: -0.45

Exercise: Entry under review: "N#Cc1c(N)oc(-c2cccc([N+](=O)[O-])c2)c1C#N" . Reported growth inhibition?
Solution: 10.8

Exercise: Entry "CCN(CC)C(=O)c1cccnc1" has what growth inhibition?
Solution: 14.2

Exercise: Which growth inhibition value belongs to C/C(=C\COc1cc(O)c2c(c1)C(=O)c1cc(C)cc(O)c1C2=O)CCC1OC1(C)C (stereo unspecified) ?
Solution: -0.65

Exercise: What does the record list as growth inhibition for CC(C)(C)c1cc(C2COC(=O)COCCOCC(=O)OCCOCCO2)cc(C(C)(C)C)c1O (stereo unspecified) ?
Solution: 4.4

Exercise: Find the recorded growth inhibition belonging to COC(=O)C(=O)C(C(=O)C(=O)Nc1nc2ccc(C)cc2s1)c1nc2ccc([N+](=O)[O-])cc2[nH]c1=O (stereo unspecified) and report it.
Solution: -30.6

Exercise: Find the recorded growth inhibition belonging to "C1CCCCNCCC1" and report it.
Solution: -3.4

Exercise: Report growth inhibition for "Fc1ccc(Nc2nc(Cl)c3[nH]cnc3n2)cc1Cl" please.
Solution: 7.6

* * *

test: NCI Yeast Anticancer Drug Screen. Data for the cln2 rad14 strain (AID 165);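 note: 0% = growth equal to vehicle treated cultures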; conditions: S. cerevisiae cln2 rad14 strain, at 50.0 µM, active compounds read high
The panel holds about 79,000 compounds, 15% with a hit somewhere; the sample as a whole holds those more often.
growth inhibition by entry:
Value expressed in %; do not type the unit.

Before answering, review these 3 worked examples.
Compound	growth inhibition [%]
CNC(=S)c1nnsc1N	-2.45
CC12CCC(CC1)C(C)(C)O2	9.6
O=C1c2c(O)cc(O)cc2OC(c2ccc(O)c(O)c2)C1O (centres undefined)	-0.65

Exercise: Sample "COc1ccccc1-c1n[nH]c(-c2ccccc2O)n1" — what was its growth inhibition?
Solution: -10.7

* * *

Test: NCI Yeast Anticancer Drug Screen. Data for the cln2 rad14 strain (AID 165);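 note: 0% = growth equal to vehicle treated cultures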
Details: S. cerevisiae cln2 rad14 strain, at 50.0 µM
Experimental: Growth inhibition of yeast strains with defined genetic alterations is measured as a screen for potential anti-cancer activity. Selected strains with alterations in DNA damage repair or cell cycle control were exposed to compounds and growth inhibition was measured relative to vehicle treated controls. The strain used in this assay is cln2 rad14
The panel holds about 79,000 compounds, 15% with a hit somewhere; the sample as a whole holds those more often. The source made the active and inactive calls. Rule as the data show it: active = growth inhibition above about 70%; inactive = the rest.
Choose the fitting class; nothing outside YES = active, NO = inactive is accepted.

Exercise: GET /call?item= "COc1c2c(c3c(c1OC)c(=O)c1ccccc1n3C)OCO2" returns the recorded outcome of this test.
Solution: NO

Exercise: What classification did "C=CCNC1=C2C[C@@H](C)C[C@@H](OC)[C@@H](OC(=O)CCCN)[C@H](C)/C=C(\C)[C@@H](OC(N)=O)[C@H](OC)/C=C\C=C(/C)C(=O)NC(=CC1=O)C2=O" end up with in this test?
Solution: NO

Exercise: # fetch the recorded call for Clc1ccc(C2C3COc4ccccc4C3=NN2c2ccccc2)cc1 (centres undefined) here
Solution: NO

Exercise: Per the records of this test, what outcome belongs to "CCCCCC(O)(CCCCC)CCCCCCCCC1=C(O)c2ccccc2C(=O)C1=O" ?
Solution: NO

Exercise: Hey, what did the test say about C=C1C2CCC3C4(C)CCCC(C)(C(=O)O)C4CCC3(C2)C1OC(=O)/C(C)=C/C (centres undefined) ?
Solution: NO
